Examples of molecules with documented selectivity ratio follow.
assay: Therapeutic index (LD50/ID50, MAA) value of the compound; settings: read-out: TI

                        molecule  result
0  CC(=O)n1nc(-c2ccc(Cl)cc2)nc1C  > 9.35

(Q) Identify the reported selectivity ratio for the following entry. CC(C)Cc1ccc(C(C)C(=O)O)cc1 (configuration not stated)
(A) < 2.15

---

assay: Lethal dose required to produce acute toxicity in mice(ip); format: organism-based; conditions: mouse, in vivo
READOUT LABEL: LD50
Please state the value followed by its unit.

>>> print(df.to_string())
                        compound     result
0  CC(=O)n1nc(-c2ccc(Cl)cc2)nc1C  600 mg/kg

// switching to the query compound
(Q) For the compound CC(C)Cc1ccc(C(C)C(=O)O)cc1 (configuration not stated) [IBUPROFEN] , give its measured LD50 value.
(A) 490 mg/kg
